- experimental target: LRRK2 wild type (recombinant human, catalytic domain amino acids 970-2527, GST-tagged) (Homo sapiens, UniProt Q5S007)
- Construct: The wild type used was recombinant human, catalytic domain (amino acids 970-2527) GST-tagged, expressed in insect cells; GST
- Sequence (Q5S007 970-2527): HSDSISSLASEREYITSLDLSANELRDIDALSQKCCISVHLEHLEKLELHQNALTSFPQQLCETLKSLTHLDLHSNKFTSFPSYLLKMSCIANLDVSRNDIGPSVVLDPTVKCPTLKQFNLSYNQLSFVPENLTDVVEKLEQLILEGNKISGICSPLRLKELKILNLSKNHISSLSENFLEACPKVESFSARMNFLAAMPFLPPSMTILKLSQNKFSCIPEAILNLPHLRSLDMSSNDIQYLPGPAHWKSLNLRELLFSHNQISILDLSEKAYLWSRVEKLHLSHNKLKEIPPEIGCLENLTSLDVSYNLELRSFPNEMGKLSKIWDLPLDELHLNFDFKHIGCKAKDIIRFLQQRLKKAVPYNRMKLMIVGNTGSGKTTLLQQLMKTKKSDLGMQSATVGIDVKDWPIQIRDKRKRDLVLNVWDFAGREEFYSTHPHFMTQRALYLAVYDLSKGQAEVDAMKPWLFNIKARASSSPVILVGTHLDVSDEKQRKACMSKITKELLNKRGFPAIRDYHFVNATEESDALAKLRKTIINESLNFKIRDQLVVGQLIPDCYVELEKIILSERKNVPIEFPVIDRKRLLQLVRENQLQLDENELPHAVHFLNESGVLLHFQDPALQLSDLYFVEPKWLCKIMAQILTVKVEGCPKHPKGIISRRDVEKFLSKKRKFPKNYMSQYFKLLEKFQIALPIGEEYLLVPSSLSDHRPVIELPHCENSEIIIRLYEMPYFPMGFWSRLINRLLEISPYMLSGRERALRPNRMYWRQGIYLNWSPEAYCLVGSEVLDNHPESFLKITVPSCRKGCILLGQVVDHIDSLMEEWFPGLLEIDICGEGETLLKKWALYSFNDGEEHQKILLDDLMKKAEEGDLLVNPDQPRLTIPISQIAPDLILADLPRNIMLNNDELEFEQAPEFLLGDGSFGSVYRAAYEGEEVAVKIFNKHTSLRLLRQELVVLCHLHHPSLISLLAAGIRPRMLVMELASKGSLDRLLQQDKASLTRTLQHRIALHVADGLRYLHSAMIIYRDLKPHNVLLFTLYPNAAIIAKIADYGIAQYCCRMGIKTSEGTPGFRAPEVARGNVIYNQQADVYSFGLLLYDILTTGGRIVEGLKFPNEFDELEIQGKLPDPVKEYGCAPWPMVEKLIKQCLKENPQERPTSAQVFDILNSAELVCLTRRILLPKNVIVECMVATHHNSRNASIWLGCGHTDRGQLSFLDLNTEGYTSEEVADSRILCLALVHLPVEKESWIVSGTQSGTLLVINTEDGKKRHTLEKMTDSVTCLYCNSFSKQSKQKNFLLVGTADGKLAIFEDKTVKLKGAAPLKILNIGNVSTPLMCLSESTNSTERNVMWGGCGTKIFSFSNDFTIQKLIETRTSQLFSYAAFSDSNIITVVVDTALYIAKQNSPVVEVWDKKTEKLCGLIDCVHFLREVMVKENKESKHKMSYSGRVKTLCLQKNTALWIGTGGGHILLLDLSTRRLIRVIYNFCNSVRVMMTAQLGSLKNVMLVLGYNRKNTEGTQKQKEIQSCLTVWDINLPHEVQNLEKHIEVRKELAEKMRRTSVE
- assay notes: LRRK2 wild type protein kinase assay ([γ-33P] ATP, peptide substrate […]), IC50
- measurement parameters: LRRK2 (variant not given); read-out: Potency score, LRRK2 IC50
readout: IC50

c1cc2[nH]nc(CCC3CCNCC3)c2c(NC2CCCCC2)n1 ... 1000 to 10000 nM
Clc1cccc(-c2n[nH]c3ccnc(NC4CCCCC4)c23)c1 ... 100 to 1000 nM
Cc1n[nH]c2ccnc(Nc3ccn(C)n3)c12 ... 100 to 1000 nM
O=C(CCc1n[nH]c2ccnc(NC3CCCCC3)c12)Nc1cccc(F)c1 ... 1000 to 10000 nM

Input line: Sample Oc1nccc2[nH]nc(-c3ccoc3)c12 — what was its IC50?
Output line: 100 to 1000 nM

----------
- experimental target: LRRK2 wild type (recombinant human, catalytic domain amino acids 970-2527, GST-tagged) (Homo sapiens)
- Construct: The wild type used was recombinant human, catalytic domain (amino acids 970-2527) GST-tagged, expressed in insect cells; GST
- assay notes: LRRK2 wild type protein kinase assay ([γ-33P] ATP, peptide substrate […]), IC50
- measurement parameters: LRRK2 (variant not given); read-out: Potency score, LRRK2 IC50
Where a name gives a salt, the structure may show the parent alone.
readout: IC50

Please give IC50, item by item, for the list that follows.
1. Cc1n[nH]c2ccnc(Nc3cccc(F)c3)c12 [Example 65]
2. Cc1n[nH]c2ccnc(NCCC3CCCN3C)c12 (stereo not shown) [Example 25]
3. Cc1n[nH]c2ccnc(N[C@H](C)C3CCCCC3)c12 [Example 38]

Output line:
["100 to 1000 nM", "1000 to 10000 nM", "1000 to 10000 nM"]

Please give IC50, item by item, for the list that follows.
1. Cc1n[nH]c2ccnc(Nc3cccc(O)c3)c12 [Example 77]
2. Cc1n[nH]c2ccnc(NCc3ccc(C#N)cc3)c12 [Example 327]
3. Cc1n[nH]c2ccnc(N(C)CC(C)C)c12 [Example 91]
4. Cc1n[nH]c2ccnc(NCCc3ccccc3Cl)c12 [Example 330]
5. O=C(CCc1n[nH]c2ccnc(NC3CCCCC3)c12)N1CCCC1 [Example 173]

Output line:
1. 100 to 1000 nM
2. 1000 to 10000 nM
3. 1000 to 10000 nM
4. < 100 nM
5. 100 to 1000 nM

Please give IC50, item by item, for the list that follows.
1. Cc1n[nH]c2ccnc(Nc3ccc4nccnc4c3)c12 [Example 352]
2. Cc1n[nH]c2ccnc(Nc3ccc(-c4cnco4)cc3)c12 [Example 87]
3. O=C(CCc1n[nH]c2ccnc(NC3CCCCC3)c12)N1CCN(Cc2ccc(F)cc2F)CC1 [Example 179]
4. Cc1n[nH]c2ccnc(Nc3cc(F)cc(F)c3)c12 [Example 69]
5. CNC(=O)c1ccc(-c2n[nH]c3ccnc(NC4CCCCC4)c23)cc1 [Example 139]
6. Cc1n[nH]cc1Nc1nccc2[nH]nc(C)c12 [Example 82]
7. Cc1n[nH]c2ccnc(Nc3ccc4ncsc4c3)c12 [Example 313]

Output line:
1. 1000 to 10000 nM
2. 100 to 1000 nM
3. 100 to 1000 nM
4. 100 to 1000 nM
5. 1000 to 10000 nM
6. 1000 to 10000 nM
7. 100 to 1000 nM

Please give IC50, item by item, for the list that follows.
1. Cc1n[nH]c2ccnc(-c3cnn(C)c3)c12 [Example 47]
2. Fc1cccc(Nc2nccc3[nH]ncc23)c1 [Example 132]
3. Cc1n[nH]c2ccnc(NCc3ccccn3)c12 [Example 312]
4. Cc1n[nH]c2ccnc(Nc3ccc(-n4cncn4)cc3)c12 [Example 96, hydrochloride salt]
5. Cc1n[nH]c2ccnc(O[C@H]3CC[C@H](C)CC3)c12 [Example 294]
6. c1ccc([C@@H]2CCCN(CCCc3n[nH]c4ccnc(NC5CCCCC5)c34)C2)cc1 [Example 215]

Output line:
1. 1000 to 10000 nM
2. 100 to 1000 nM
3. 1000 to 10000 nM
4. 100 to 1000 nM
5. < 100 nM
6. 1000 to 10000 nM

Please give IC50, item by item, for the list that follows.
1. COc1ccc(-c2n[nH]c3ccnc(NC4CCCCC4)c23)cc1Cl [Example 140]
2. CCOc1cccc(Nc2nccc3[nH]nc(C)c23)c1 [Example 71]
3. O=C(Nc1ccc(CCc2n[nH]c3ccnc(NC4CCCCC4)c23)cc1)c1cocn1 [Example 268]
4. CS(=O)(=O)N1CCC(CCc2n[nH]c3ccnc(NC4CCCCC4)c23)CC1 [Example 220]
5. c1ccc(Cn2cc(-c3n[nH]c4ccnc(NC5CCCCC5)c34)cn2)nc1 [Example 234]
6. Cc1n[nH]c2ccnc(OC3CCCCCC3)c12 [Example 283]
7. Cc1n[nH]c2ccnc(N[C@@H](C)C3CC3)c12 [Example 42]
8. Cc1n[nH]c2ccnc(Nc3cccc(-c4nnco4)c3)c12 [Example 353]

Output line:
["100 to 1000 nM", "1000 to 10000 nM", "< 100 nM", "100 to 1000 nM", "100 to 1000 nM", "< 100 nM", "100 to 1000 nM", "1000 to 10000 nM"]

Please give IC50, item by item, for the list that follows.
1. Cc1n[nH]c2ccnc(OC3CCC3)c12 [Example 281]
2. Cc1n[nH]c2ccnc(Nc3ccc(C(N)=O)cc3)c12 [Example 83]

Output line:
["100 to 1000 nM", "100 to 1000 nM"]

----------
- experimental target: LRRK2 wild type (recombinant human, catalytic domain amino acids 970-2527, GST-tagged) (Homo sapiens, UniProt Q5S007)
- Construct: The wild type used was recombinant human, catalytic domain (amino acids 970-2527) GST-tagged, expressed in insect cells; GST
- assay notes: LRRK2 wild type protein kinase assay ([γ-33P] ATP, peptide substrate […]), IC50
- measurement parameters: LRRK2 (variant not given); read-out: Potency score, LRRK2 IC50
pIC50: −log10 of the molar value.
Provide the recorded pIC50 for the entries that follow.

Please give pIC50, item by item, for the list that follows.
1. CN(C)C(=O)CCc1n[nH]c2ccnc(NC3CCCCC3)c12
2. Cc1n[nH]c2ccnc(-c3ccc(N4CCOCC4)cc3)c12

Output line:
1: 6.00 to 7.00; 2: 5.00 to 6.00

Please give pIC50, item by item, for the list that follows.
1. CCOc1nccc2[nH]nc(C)c12
2. Cc1n[nH]c2ccnc(Nc3cccc(Br)c3)c12

Output line:
1: 6.00 to 7.00; 2: 6.00 to 7.00

----------
- experimental target: LRRK2 wild type (recombinant human, catalytic domain amino acids 970-2527, GST-tagged) (Homo sapiens)
- Construct: The wild type used was recombinant human, catalytic domain (amino acids 970-2527) GST-tagged, expressed in insect cells; GST
- assay notes: LRRK2 wild type protein kinase assay ([γ-33P] ATP, peptide substrate […]), IC50
- measurement parameters: LRRK2 (variant not given); read-out: Potency score, LRRK2 IC50
readout: IC50

// known answers, use as guide
Cc1n[nH]c2ccnc(OC3CCCC3(C)C)c12 (stereo not shown) [Example 289] ... 0.1 to 1 µM
O=C(CCc1n[nH]c2ccnc(NC3CCCCC3)c12)NC1CCCC1 [Example 184] ... 0.1 to 1 µM
Cc1n[nH]c2ccnc(NCc3ccco3)c12 [Example 303] ... 1 to 10 µM
Cc1n[nH]c2ccnc(NC3CCN(C(=O)CCN4CCOCC4)CC3)c12 [Example 103] ... 1 to 10 µM
Cc1n[nH]c2ccnc(Nc3ccc(C(=O)N4CCC(F)(F)CC4)cc3)c12 [Example 110] ... 0.1 to 1 µM
CC1CCN(C(=O)c2ccc(CCc3n[nH]c4ccnc(NC5CCCCC5)c34)cc2)CC1 [Example 229] ... < 0.1 µM

Input line: Sample CC(=O)Nc1ccc(CCc2n[nH]c3ccnc(NC4CCCCC4)c23)cc1 [Example 262] — what was its IC50?
Output line: < 0.1 µM

----------
- experimental target: LRRK2 wild type (recombinant human, catalytic domain amino acids 970-2527, GST-tagged) (Homo sapiens, UniProt Q5S007)
- Construct: The wild type used was recombinant human, catalytic domain (amino acids 970-2527) GST-tagged, expressed in insect cells; GST
- assay notes: LRRK2 wild type protein kinase assay ([γ-33P] ATP, peptide substrate […]), IC50
- measurement parameters: LRRK2 (variant not given); read-out: Potency score, LRRK2 IC50
pIC50: −log10 of the molar value.
readout: pIC50

// known answers, use as guide
Cc1cccc(Nc2nccc3[nH]nc(C)c23)c1 ... 6.00 to 7.00
CN(Cc1ccccc1)C(=O)CCc1n[nH]c2ccnc(NC3CCCCC3)c12 ... 6.00 to 7.00
Cc1n[nH]c2ccnc(Nc3ccc(F)cc3)c12 ... 6.00 to 7.00

Please give pIC50, item by item, for the list that follows.
1. O=C(CCc1n[nH]c2ccnc(NC3CCCCC3)c12)N1CCOCC1
2. CC(=O)N1CCC(CCc2n[nH]c3ccnc(NC4CCCCC4)c23)CC1

Output line:
6.00 to 7.00
5.00 to 6.00
